Subject Of Test: purified human Hsp90
Assay Details: Binding Assay: fluorescence polarization with BODIPY-labeled geldanamycin
Measurement Setup: BODIPY-GM 10 nM, Hsp90 30 nM
Parameter: IC50

# IC50 lookup, item COc1cc(I)c(Sc2nc3c(N)ncnc3n2CCc2ccccc2Cl)cc1OC [Example 261]
> 25 µM

Look up IC50: Nc1ncnc2c1nc(Sc1cc(Cl)c(Cl)cc1Cl)n2CCc1ccccc1Cl [Example 262]
> 25 µM

Item under review: Nc1ncnc2c1nc(Sc1cc3c(cc1Br)OCO3)n2CCc1ccccc1Cl [Example 53] . Reported IC50?
0.045 µM

Endpoint output: IC50 of Nc1ncnc2c1nc(Sc1cccc(OC(F)F)c1)n2CCc1c(Cl)cccc1Cl [Example 253] . Value?
> 8 µM

# IC50 lookup, item COc1ccc(OC)c(Sc2nc3c(N)ncnc3n2CCC2=CC3CC(C2)C3(C)C)c1 (centres unmarked) [Example 405]
> 8 µM

* * *

Subject Of Test: purified human Hsp90
Assay Details: Binding Assay: fluorescence polarization with BODIPY-labeled geldanamycin
Measurement Setup: BODIPY-GM 10 nM, Hsp90 30 nM
Parameter: IC50 (nM)

# Compound, IC50 (nM)
rows = [
    ("CCOP(=O)(OCC)N1CCC(CCn2c(Sc3cc4c(cc3Br)OCO4)nc3c(N)ncnc32)CC1 [Example 644]", 200),
]

1 = CC(C)(C)OC(=O)N1CCC(Cn2c(Sc3cc4c(cc3Br)OCO4)nc3c(N)ncnc32)CC1 [Example 639]
2 = CC(C)(C)OC(=O)N1CCC(=CCn2c(Sc3cc4c(cc3Br)OCO4)nc3c(N)ncnc32)CC1 [Example 390]
For the pair 1 and 2 , which entry has the numerically smaller recorded IC50? Respond with the label that goes with your answer.
2
(2: 310 nM, 1: 900 nM)

* * *

Subject Of Test: purified human Hsp90
Assay Details: Binding Assay: fluorescence polarization with BODIPY-labeled geldanamycin
Measurement Setup: BODIPY-GM 10 nM, Hsp90 30 nM
Text: Compound binding to purified Hsp90 was monitored using BODIPY-labeled geldanamycin (BODIPY-GM) in a fluorescence polarization assay adapted from Kim et al. (Journal of Biomolecular Screening 2004, 9(5):375-381). […] Parallel and perpendicular fluorescence measurements were read (LJL BioSystems Analyst AD plate reader) with excitation/emission wavelengths of 485/530 nm. […]
Parameter: IC50

Recorded results for 3 compounds are shown here.
# Compound, Value Observed
rows = [
    ("Nc1ncnc2c1nc(Sc1cccc(OC(F)F)c1)n2CCc1c(F)cccc1Cl", "> 8 µM"),
    ("CC(=O)N1CCC(CCn2c(Sc3nc4ccc(F)cc4s3)nc3c(N)ncnc32)CC1", "> 5 µM"),
    ("CN1CCCC1CCn1c(Sc2cc3c(cc2Br)OCO3)nc2c(N)ncnc21 (stereo not drawn)", "> 25 µM"),
]

Observed IC50 on purified human Hsp90 for COc1ccc(OC)c(Sc2nc3c(N)ncnc3n2CCN2CCN(C(C)=O)CC2)c1 , please.
> 25 µM

Which IC50 is reported with purified human Hsp90 for this entry: CC(C)(C)OC(=O)N1CCCCC1CCCn1c(Sc2cc3c(cc2Br)OCO3)nc2c(N)ncnc21 (stereo not drawn) ?
> 25 µM

Provide value of IC50 for this record tested with purified human Hsp90: COc1ccc(OC)c(Sc2nc3c(N)ncnc3n2CCc2ccc3c(c2)OCO3)c1
> 25 µM

* * *

Subject Of Test: purified human Hsp90
Assay Details: Binding Assay: fluorescence polarization with BODIPY-labeled geldanamycin
Measurement Setup: BODIPY-GM 10 nM, Hsp90 30 nM
Listing of recorded IC50 by entry.

Worked examples follow.
# Compound, IC50
records = [
    ("COc1ccc(OC)c(Sc2nc3c(N)ncnc3n2CCc2ccc(Cl)cc2)c1 [Example 248]", "> 5 µM"),
    ("CC(=O)N1CCC(CCn2c(Sc3cc4c(cc3Br)OCO4)nc3c(N)ncnc32)CC1 [Example 364]", "0.102 µM"),
    ("CC(=O)N1CCC(CCn2c(Sc3ccc4c(c3)OCO4)nc3c(N)ncnc32)CC1 [Example 561]", "> 5 µM"),
]

Endpoint output: IC50 of COc1ccc(OC)c(Sc2nc3c(N)ncnc3n2CCc2ccccc2O)c1 [Example 231] . Value?
> 25 µM

* * *

Subject Of Test: purified human Hsp90
Assay Details: Binding Assay: fluorescence polarization with BODIPY-labeled geldanamycin
Measurement Setup: BODIPY-GM 10 nM, Hsp90 30 nM
pIC50: −log10 of the molar value.
// values below are reported pIC50

# Compound, Subject Of Test, pIC50
measured = [
    ("Nc1ncnc2c1nc(Sc1ncccc1Br)n2CCC1CCN(C=O)CC1 [Example 550]", "purified human Hsp90", "< 5.30"),
    ("COc1ccc(OC)c(Sc2nc3c(N)ncnc3n2CCc2ccc(Br)cc2)c1 [Example 71]", "purified human Hsp90", "< 4.60"),
    ("Nc1ncn(CCc2ccccc2[N+](=O)[O-])c2nc(Sc3cc4c(cc3Br)OCO4)nc1-2 [Example 208]", "purified human Hsp90", "< 4.60"),
    ("CC(C)[C@H]1C[C@H](CCn2c(Sc3cc4c(cc3Br)OCO4)nc3c(N)ncnc32)CCN1C(=O)OC(C)(C)C (relative stereo) [Example 428]", "purified human Hsp90", "< 5.10"),
    ("COc1ccc(OC)c(Sc2nc3c(N)ncnc3n2CCc2ccc(C(C)=O)cc2)c1 [Example 63]", "purified human Hsp90", "< 5.30"),
]

Look up pIC50 for this compound: Nc1ncnc2c1nc(Sc1cc(OC(F)(F)F)ccc1Cl)n2CCc1ccccc1 [Example 228]
< 5.10

# credit: patent US7595401B2
